Provenance of the data: patent US6218431A

Molecular target: glucagon receptor (Homo sapiens, UniProt P47871)
Construct: expressed in transfected cells; host or cells: Chinese Hamster Ovary cells (CHO-HGR), membranes
Sequence (P47871 26-477): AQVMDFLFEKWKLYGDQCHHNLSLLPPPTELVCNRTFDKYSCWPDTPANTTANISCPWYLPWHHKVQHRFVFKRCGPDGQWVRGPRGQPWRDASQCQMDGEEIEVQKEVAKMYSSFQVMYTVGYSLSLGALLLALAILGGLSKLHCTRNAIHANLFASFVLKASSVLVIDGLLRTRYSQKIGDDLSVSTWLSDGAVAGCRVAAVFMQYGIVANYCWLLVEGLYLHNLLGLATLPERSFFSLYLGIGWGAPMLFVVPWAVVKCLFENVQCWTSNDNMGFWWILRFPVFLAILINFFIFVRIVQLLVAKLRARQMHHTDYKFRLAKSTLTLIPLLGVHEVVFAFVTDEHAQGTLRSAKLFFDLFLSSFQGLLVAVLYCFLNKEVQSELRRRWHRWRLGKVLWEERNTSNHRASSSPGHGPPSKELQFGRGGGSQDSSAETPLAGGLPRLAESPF
Assay: glucagon receptor binding assay (125I-glucagon, CHO-HGR membranes)
Conditions: 125I-glucagon; 60 min at room temperature; read-out: IC50
pIC50: −log10 of the molar value.
quantity name: pIC50

As a guide, the following entries are already answered.
{"columns": ["compound", "quantity name", "quantitative result"],
 "data": [
  ["Cc1c(F)c(F)c(SCc2c(C(C)C)cc(C(C)C)c(CO)c2-c2ccc(F)cc2)c(F)c1F [Example 286]", "pIC50", 4.74],
  ["CCCCCc1c(C(C)C)nc(C)c(CO)c1-c1ccc(F)cc1 [Example 198]", "pIC50", 4.77]
]}

A = CC(C)c1cc(C(C)C)c(CSc2c(F)c(F)c(Cl)c(F)c2F)c(-c2ccc(F)cc2)c1CO [Example 287]
B = C=Cc1c(C(C)C)nc(C(C)C)c(CO)c1-c1ccc(F)cc1 [Example 22]
Larger number for pIC50: A , or B ? Record your answer as the label of the chosen record. B

1 = CCCc1c(C(C)C)cc(C(C)C)c(CO)c1-c1ccc(F)cc1O (racemic) [Example 241]
2 = CCCc1c(C)cc(C)c(C(C)O)c1-c1ccc(F)cc1 (centres unmarked) [Example 195]
Larger number for pIC50: 1 , or 2 ? Record your answer as the label of the chosen record. 1

I = CC(C)CCCc1c(C(C)C)nc(C(C)C)c(CO)c1-c1ccc(F)cc1 [Example 30]
II = CCCCCc1c(C(C)C)nc(C(C)C)c(C(C)O)c1-c1ccc(F)cc1 (single isomer, unassigned) [Example 107]
Compare I and II and name the one whose reported pIC50 is smaller. Record your answer as the label of the chosen record. II
(II: 5.52, I: 6.05)

====

Molecular target: glucagon receptor (Homo sapiens)
Construct: expressed in transfected cells; host or cells: Chinese Hamster Ovary cells (CHO-HGR), membranes
Assay: glucagon receptor binding assay (125I-glucagon, CHO-HGR membranes)
Conditions: 125I-glucagon; 60 min at room temperature; read-out: IC50
pIC50: −log10 of the molar value.
quantity name: pIC50

{"columns": ["molecule", "pIC50"],
 "data": [
  ["CC(C)c1nc(C(C)C)c(CSc2cccc3ccccc23)c(-c2ccc(F)cc2)c1CO [Example 51]", 4.80],
  ["CCCC=Cc1c(C(C)C)nc(C(C)C)c(CO)c1-c1ccc(C)cc1 [Example 129]", 5.82],
  ["CC1=CC(C)(C)Cc2c1nc(C(C)C)c(CO)c2-c1ccc(F)cc1 [Example 236]", 5.40]
]}

I = C=Cc1nc(C(C)C)c(CO)c(-c2ccc(F)cc2)c1CCCCC [Example 214]
II = CCCCCc1c(C(O)CC)nc(C(C)C)c(CO)c1-c1ccc(F)cc1 (centres unmarked) [Example 212]
Larger number for pIC50: I , or II ? Record your answer as the label of the chosen record. I
(I: 5.30, II: 4.85)

====

Molecular target: glucagon receptor (Homo sapiens, UniProt P47871)
Construct: expressed in transfected cells; host or cells: Chinese Hamster Ovary cells (CHO-HGR), membranes
Assay: glucagon receptor binding assay (125I-glucagon, CHO-HGR membranes)
Details: 20 μM; reported where 20 μM did not reduce glucagon binding by 50%
quantity name: inhibition at 20 µM (%)

{"columns": ["compound", "inhibition at 20 µM (%)"],
 "data": [
  ["CCCC=Cc1c(C(C)C)nc(C(C)C)c(CO)c1-c1ccc(CC)cc1", 37.3],
  ["CCCCCc1c(C(C)C)nc(C(C)C)c(CO)c1-c1ccc(OC)cc1", 37.1],
  ["CCCCCc1c(C)nc(C)c(CO)c1-c1ccccc1", 1.98]
]}

1 = CCCCCc1c(C(C)(C)O)nc(C(C)C)c(CO)c1-c1ccc(F)cc1
2 = CC(C)c1nc(C(C)C)c(C(C)O)c(-c2ccc(F)cc2)c1CO (racemic)
Larger number for inhibition at 20 µM: 1 , or 2 ? Record your answer as the label of the chosen record. 2
(2: 28.3%, 1: 5.11%)

====

Target: glucagon receptor (Homo sapiens)
Construct: expressed in transfected cells; host or cells: Chinese Hamster Ovary cells (CHO-HGR), membranes
Experiment: glucagon receptor binding assay (125I-glucagon, CHO-HGR membranes)
Conditions: 20 μM; reported where 20 μM did not reduce glucagon binding by 50%
quantity name: inhibition at 20 µM (%)

I = CC(C)c1nc(C(C)C)c(CN2CCC(N3CCCCC3)CC2)c(-c2ccc(F)cc2)c1CO
II = CCCCCc1c(C(C)C)nc(C(C)C)c(CO)c1-c1cccc(Cl)c1
Larger number for inhibition at 20 µM: I , or II ? Record your answer as the label of the chosen record. II
(II: 48.8%, I: 27.1%)

a = CCCCCc1c(C(C)C)nc(C(C)C)c(CN)c1-c1ccc(F)cc1
b = CCCC=Cc1c(C(C)C)nc(C(C)C)c(CO)c1-c1ccccc1OCc1ccccc1
Larger number for inhibition at 20 µM: a , or b ? Record your answer as the label of the chosen record. a
(a: 26.2%, b: 13.9%)

P = CCCCCc1c(C(C)C)nc(C(C)C)c(CNC)c1-c1ccc(F)cc1
Q = CC(C)c1nc(C(C)C)c(CCCCO)c(-c2ccc(F)cc2)c1CO
R = CCc1nc(CC)c(CO)c(-c2ccccc2)c1C=C(C)C
Sequence the entries by inhibition at 20 µM, beginning with the highest number. Put the labels in the requested order and write them down. P, Q, R
(P: 37%, Q: 24.8%, R: 12.4%)

====

Listed compounds paired with reported IC50
Molecular target: glucagon receptor (Homo sapiens, UniProt P47871)
Construct: expressed in transfected cells; host or cells: Chinese Hamster Ovary cells (CHO-HGR), membranes
Test: glucagon receptor binding assay (125I-glucagon, CHO-HGR membranes)
Conditions: IC50, 125I-glucagon; 60 min at room temperature
Experimental: The affinity for the glucagon receptor of compounds of the present invention is determined by the glucagon receptor binding assay. […] Following a wash step with ice-cold PBS/0.1% BSA, the filters were punched into test tubes, and the membrane bound radioactivity was determined.
Give the quantity in µM, number only.

{"columns": ["compound", "experimental system", "quantitative result"],
 "data": [
  ["CCCCCc1c(C)nc(C(C)C)c(CO)c1-c1ccc(F)cc1 [Example 197]", "glucagon receptor (Homo sapiens, UniProt P47871)", 7]
]}

Now let's try a different one.
What value of IC50 has been recorded for this entry: CCCCCc1c(C(O)CCC)nc(C(C)C)c(CO)c1-c1ccc(F)cc1 (centres unmarked) [Example 211] 19

====

Molecular target: glucagon receptor (Homo sapiens, UniProt P47871)
Construct: expressed in transfected cells; host or cells: Chinese Hamster Ovary cells (CHO-HGR), membranes
Assay: glucagon receptor binding assay (125I-glucagon, CHO-HGR membranes)
Details: 125I-glucagon; 60 min at room temperature; read-out: IC50
quantity name: IC50 (nM)

As a guide, the following entries are already answered.
{"columns": ["molecule", "quantity unit", "quantitative result"],
 "data": [
  ["CCCCCc1c(C(C)C)cc(C(C)C)c(CO)c1-c1ccc(F)cc1 [Example 190]", "nM", 300],
  ["CC(C)c1nc(C(C)C)c(C(C)O)c(-c2ccc(F)cc2)c1CSc1ccccc1 (racemic) [Example 113]", "nM", 600],
  ["CC(C)c1nc(C(C)C)c(CSc2ccccc2)c(-c2ccc(F)cc2)c1CO [Example 47]", "nM", 1500],
  ["CSCc1c(C(C)C)nc(C(C)C)c(CO)c1-c1ccc(F)cc1 [Example 67]", "nM", 1100],
  ["CCCCCc1c(C(C)C)nc(C(C)C)c(CO)c1-c1ccoc1 [Example 188]", "nM", 10500]
]}

I = Cc1ccccc1CCc1c(C(C)C)nc(C(C)C)c(CO)c1-c1ccc(F)cc1 [Example 43]
II = CCc1ccc(SCc2c(C(C)C)nc(C(C)C)c(CO)c2-c2ccc(F)cc2)cc1 [Example 62]
III = Cc1cc(C)cc(SCc2c(C(C)C)nc(C(C)C)c(CO)c2-c2ccc(F)cc2)c1 [Example 61]
IV = CCCc1c(C(C)C)nc(C(C)C)c(CO)c1-c1ccc(F)cc1O (single isomer, unassigned) [Example 239-E2]
Hey, quick one: sort these by IC50, low to high? Put the labels in the requested order and write them down. IV, II, I, III

a = CCCCCCCCc1c(C(C)C)nc(C(C)C)c(CO)c1-c1ccc(F)cc1 [Example 36]
b = CC(C)c1nc(C(C)C)c(CSc2ccc(F)cc2)c(-c2ccc(F)cc2)c1CO [Example 49]
c = CC(C)c1nc(C(C)C)c(CNC2CCCCC2)c(-c2ccc(F)cc2)c1CO [Example 78]
Hey, quick one: sort these by IC50, low to high? Put the labels in the requested order and write them down. b, a, c

a = CC(C)c1nc(C(C)C)c(CSc2cccc(C(F)(F)F)c2)c(-c2ccc(F)cc2)c1CO [Example 48]
b = CCCCCCc1c(C(C)C)nc(C(C)C)c(CO)c1-c1ccc(F)cc1 [Example 23]
c = CCCCCCc1c(C(C)C)nc(C(C)C)c(CO)c1-c1ccccc1 [Example 16]
d = CCCc1c(C(C)C)nc(C(C)C)c(CO)c1-c1ccc(F)cc1O (racemic) [Example 239-rac]
Hey, quick one: sort these by IC50, low to high? Put the labels in the requested order and write them down. d, b, c, a
(d: 80 nM, b: 390 nM, c: 850 nM, a: 1800 nM)
